System: NCI/ADR-RES ovarian
Assay: NCI-60 one-dose screen, 48 h (100 = growth as untreated, 0 = no growth, -100 = all killed)
Details: 10 µM unless noted
The panel holds about 83,000 compounds, 20% with a hit somewhere; the sample as a whole holds those more often.
measurement_kind: growth (%)
Answer in %, number only, no unit symbol.

A selection of reference data follows.
- compound: "NNCCc1ccc(NC(=O)CCCc2ccc(/C=C/C(=O)NO)cc2)cc1"
  scale_unit: "%"
  growth: 44.3
- compound: "COc1cc2c(cc1O)CC[C@@H]1[C@@H]2CC[C@]2(C)[C@@H](NCCN(C)C)CC[C@@H]12"
  scale_unit: "%"
  growth: -85.9
- compound: "O=c1c2c3c(sc2nc(N/N=C/c2cn(-c4ccccc4)nc2-c2ccc(Cl)cc2)n1Cc1ccccc1)CCCC3"
  scale_unit: "%"
  growth: 108

# next compound below
// lookup growth for `CCN(CC)S(=O)(=O)c1ccc(OC)c(NC(=O)c2[nH]c(C)c3c2CCCCC3=O)c1`
40.2

====

Test system: LOX IMVI melanoma
Assay: NCI-60 one-dose screen, 48 h
Conditions: 10 µM unless noted
This is part of a sample that, as a whole, favours compounds with a hit. Of some 83,000 tested, about 20% had one in any assay. Calls of active or inactive are those of the source. How the source made its calls: active means growth percent below 10; inactive means the rest.
The categories you may choose from are label 1 for active, label 0 for inactive

Consider the following illustrative entries.
- compound: "COc1ccc(-c2nc3ccc(-c4nc5ccc(N6CCN(c7ccccc7)CC6)cc5[nH]4)cc3[nH]2)cc1OC"
  qualitative_label: "label 1"
- compound: "CCOC(=O)C(C)(C#N)C1C=CCCC1 (stereo not drawn)"
  qualitative_label: "label 0"
- compound: "CCOc1nc(-c2ccccc2)cc2c(O)c(C(=O)O)[nH]c(=O)c12"
  qualitative_label: "label 0"
- compound: "CN1CCN(CCCOc2cccc3nc(Nc4cc(Cl)cc(Cl)c4)ccc23)CC1"
  qualitative_label: "label 1"
- compound: "C=CCSSc1ncnc2c1ncn2C1OC(CO)C(O)C1O (stereo not drawn)"
  qualitative_label: "label 1"
- compound: "O=C(CN1CCCCC1)Nc1ccc2oc(=O)ccc2c1"
  qualitative_label: "label 0"

Hi team, can someone confirm the assay call for `COc1cc2c(cc1O)CC[C@@H]1[C@@H]2CC[C@]2(C)[C@@H](OCCCN(C)C)CC[C@@H]12` ?
label 1

Hi team, can someone confirm the assay call for `O=C(Nc1ccccc1Cl)c1ccc(NC2=C(Cl)C(=O)N(C3CCCCC3)C2=O)cc1` ?
label 0

====

Reported growth by item:
System: OVCAR-5 ovarian
Assay: NCI-60 one-dose screen, 48 h (100 = growth as untreated, 0 = no growth, -100 = all killed)
Conditions: 10 µM unless noted
This is part of a sample that, as a whole, favours compounds with a hit. Of some 83,000 tested, about 20% had one in any assay. Calls of active or inactive are those of the source. Rule for the calls: active = growth percent below 10; inactive = the rest.

// lookup growth for `Fc1ccc2[nH]cc(SSc3c[nH]c4ccc(F)cc34)c2c1`
46.8% (inactive)

// lookup growth for `N#C/C(=C\c1ccc(-c2cc(C(F)(F)F)ccc2Cl)o1)c1nc(-c2ccco2)cs1`
98.9% (inactive)

====

Test system: DU-145 prostate
Experiment: NCI-60 one-dose screen, 48 h
Conditions: 10 µM unless noted
Compounds without any hit were thinned out: in the full panel of roughly 83,000, 20% have a hit. Activity calls are given as the source filed them. The calls were made as follows: active = growth percent below 10; inactive = the rest.
The categories you may choose from are TRUE for active, FALSE for inactive

- molecule: "O=C(CCCCC(=O)N/N=C\\c1ccccc1O)N/N=C\\c1ccccc1O"
  qualitative_label: "FALSE"
- molecule: "O=C1/C(=C(/c2ccccc2)N2CCOCC2)Cc2ccccc21"
  qualitative_label: "TRUE"
- molecule: "Cc1cc2nc(NC(=O)CN3CCN(CCN4C(=O)c5cccc6cccc(c56)C4=O)CC3)sc2cc1C"
  qualitative_label: "FALSE"

Hi team, can someone confirm the assay call for `Cc1cn2c(/C=C3/C(=O)Nc4c3ccc3ccccc43)c(C(F)(F)F)nc2s1` ?
TRUE

Hi team, can someone confirm the assay call for `COc1cc2c(cc1-c1c(C)noc1C)ncc1nc(C3CCOCC3)n([C@H](C)COC(F)F)c12` ?
FALSE

Hi team, can someone confirm the assay call for `Cn1cc(C(=O)c2nc(-c3c[nH]c4ccc(F)cc34)no2)c2cc(F)ccc21` ?
FALSE

Hi team, can someone confirm the assay call for `Cn1c(NCCc2ccc(O)c(O)c2)nc2c1c(=O)n(Cc1ccc(Br)cc1)c(=O)n2C` ?
FALSE

Hi team, can someone confirm the assay call for `O=CNc1ccc2c(c1)Cc1cccc(NC=O)c1-2` ?
FALSE

====

Tested on: EKVX NSCLC
Test: NCI-60 one-dose screen, 48 h (100 = growth as untreated, 0 = no growth, -100 = all killed)
Conditions: 10 µM unless noted
The panel holds about 83,000 compounds, 20% with a hit somewhere; the sample as a whole holds those more often.
Reported growth by item:
Answer in %, number only, no unit symbol.

- compound: "COc1cc2c(cc1-c1c(C)noc1C)ncc1nc(C3CCC(F)(F)CC3)n([C@H](C)COC(F)F)c12"
  scale_unit: "%"
  growth: 48.1
- compound: "CCOC(=O)c1c(C)oc2ncnc(N3CCN(C(=O)COc4ccc(SC)cc4)CC3)c12"
  scale_unit: "%"
  growth: 88.1

# next compound below
// lookup growth for `O=C(Cc1ccc(/C=C/C(=O)c2ncc[nH]2)cc1)Nc1ccccc1`
64.6

====

System: LOX IMVI melanoma
Experiment: NCI-60 one-dose screen, 48 h (100 = growth as untreated, 0 = no growth, -100 = all killed)
Settings: 10 µM unless noted
The panel holds about 83,000 compounds, 20% with a hit somewhere; the sample as a whole holds those more often.
Reported growth by item:
Answer in %, number only, no unit symbol.

A selection of reference data follows.
- compound: "O=C1/C(=C/c2ccc(Cl)cc2)SC(=S)N1CCc1ccc(O)cc1"
  measurement_kind: "growth"
  measured_number: 65.1
- compound: "CCCCC/C(C=C(C#N)C#N)=C/c1ccccc1"
  measurement_kind: "growth"
  measured_number: 2.03
- compound: "O=C(COc1ccc(/C=C2\\CSc3ccccc3C2=O)cc1)Nc1nccs1"
  measurement_kind: "growth"
  measured_number: -28.3
- compound: "CCCCn1cnc2c(Sc3c([N+](=O)[O-])ncn3C)nc(N)nc21"
  measurement_kind: "growth"
  measured_number: 107

# next compound below
// lookup growth for `Fc1ccc2[nH]cc(SSc3c[nH]c4ccc(F)cc34)c2c1`
25.5

====

Tested on: T-47D breast
Test: NCI-60 one-dose screen, 48 h
Settings: 10 µM unless noted
Method: Growth inhibition of the T-47D human tumor cell line is measured as a screen for anti-cancer activity. Cells are grown in 96 well plates and exposed to the test compound for 48 hours. Compounds are tested at a single concentration, which is 10^-5 M for most compounds. The reported endpoint is percent growth (GI% or GIPRCNT), where numbers from 0 - 100% represent growth inhibition, and numbers from -100% - 0 represent cell death. For example, a value of 40 represents 60% growth inhibition. […]
The panel holds about 83,000 compounds, 20% with a hit somewhere; the sample as a whole holds those more often. The source made the active and inactive calls. Rule for the calls: active = growth percent below 10; inactive = the rest.
The categories you may choose from are active, inactive

Consider the following illustrative entries.
- compound: "O=C1CSC(=S)N1CCc1ccc(O)cc1"
  qualitative_label: "inactive"
- compound: "COc1cc(-c2nc3cc(Cl)c(Cl)cc3[nH]2)ccc1OCC(=O)N=Nc1c(O)[nH]c2ccccc12"
  qualitative_label: "active"
- compound: "O=C1CC[C@H](c2ccc(O)c3c2C(=O)[C@@H]2O[C@@H]2C3=O)c2cccc(O)c21"
  qualitative_label: "active"

Hi team, can someone confirm the assay call for `COc1ccc(Nc2cc(C)nc(N3CCN(c4ccnc5cc(Cl)ccc45)CC3)n2)cc1` ?
active

====

Tested on: BT-549 breast
Assay: NCI-60 one-dose screen, 48 h (100 = growth as untreated, 0 = no growth, -100 = all killed)
Conditions: 10 µM unless noted
About 83,000 compounds went through this panel and 20% of them were active in at least one assay; those are over-represented in the sample as a whole.
measurement_kind: growth (%)
Answer in %, number only, no unit symbol.

- compound: "NC(=O)c1cc(I)ccc1NC(=O)/C=C/c1ccccc1Cl"
  measured_number: 70.1
- compound: "CN(C)c1ccc(N=Nc2ccccn2)c(O)c1"
  measured_number: 37
- compound: "CCOc1cc2c(cc1OCC)C(c1cc(OC)c(O)cc1Cl)NCC2 (stereo not drawn)"
  measured_number: 102
- compound: "COc1ccc2c(c1)O/C(=C\\c1cccc(OCC(=O)Nc3nc4c(s3)CCCC4)c1)C2=O"
  measured_number: 105
- compound: "Cn1cc(C(=O)c2nc(-c3c[nH]c4ccccc34)no2)c2ccccc21"
  measured_number: 69.7

// lookup growth for `N#CCCN=Nc1c(O)[nH]c2ccc(F)cc12`
108

// lookup growth for `COc1ccc(-n2nc(C)c3c(Nc4ccc(NC(=O)Nc5cc(C(F)(F)F)ccc5F)cc4)ncnc32)cc1`
65.4

// lookup growth for `O=C1NC(=Nc2ccc(O)cc2)S/C1=C\c1cccc(Cl)c1`
64.9

// lookup growth for COc1ccc(C2C(C#N)=C(N)Oc3n[nH]c(-c4cccs4)c32)cc1I (stereo not drawn)
92.1
